Hey, just so you know, these numbers are from patent US12497460B2.

Target: T1, MSR1 on differentiated THP-1 cells (Homo sapiens, UniProt P21757)
T1 construct: endogenous in cells; host or cells: THP-1 cells differentiated with PMA
T1 sequence (P21757 1-451): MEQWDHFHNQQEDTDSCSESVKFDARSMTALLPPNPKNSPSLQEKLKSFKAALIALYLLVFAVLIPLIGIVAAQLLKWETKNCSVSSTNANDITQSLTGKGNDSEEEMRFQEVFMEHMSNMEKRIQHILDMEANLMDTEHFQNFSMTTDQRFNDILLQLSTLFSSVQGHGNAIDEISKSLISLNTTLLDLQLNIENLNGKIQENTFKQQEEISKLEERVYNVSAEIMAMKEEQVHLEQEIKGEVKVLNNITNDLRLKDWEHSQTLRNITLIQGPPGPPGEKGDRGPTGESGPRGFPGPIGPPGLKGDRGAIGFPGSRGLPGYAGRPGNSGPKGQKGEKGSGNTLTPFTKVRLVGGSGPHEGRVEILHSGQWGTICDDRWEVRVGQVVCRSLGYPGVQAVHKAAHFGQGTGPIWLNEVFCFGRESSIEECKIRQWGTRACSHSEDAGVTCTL
Experiment: Binding and internalization of cell-surface expressed MSR1 in differentiated THP-1 cells
Format: cell-based
Settings: 10 μg/mL antibody, 37° C.

molecule: H1H27729P-N297Q: anti-MSR1 antibody "made with an N297Q single point mutation in human Fcγ portion" (antibody, V domains shown) VH: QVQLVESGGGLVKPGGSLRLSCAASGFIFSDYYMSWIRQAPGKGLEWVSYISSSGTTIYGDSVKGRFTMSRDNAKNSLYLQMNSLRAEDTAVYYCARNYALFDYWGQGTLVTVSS VL: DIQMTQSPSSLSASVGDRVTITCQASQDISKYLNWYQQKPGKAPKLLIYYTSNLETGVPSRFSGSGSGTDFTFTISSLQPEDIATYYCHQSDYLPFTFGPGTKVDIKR
Total Internalized RFU / RFU: 3763127
--
molecule: H1H27739P-N297Q: anti-MSR1 antibody "made with an N297Q single point mutation in human Fcγ portion" (antibody, V domains shown) VH: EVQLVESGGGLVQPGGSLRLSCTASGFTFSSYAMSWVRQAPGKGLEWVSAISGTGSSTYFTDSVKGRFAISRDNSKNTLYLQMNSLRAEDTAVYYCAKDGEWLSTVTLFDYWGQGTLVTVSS VL: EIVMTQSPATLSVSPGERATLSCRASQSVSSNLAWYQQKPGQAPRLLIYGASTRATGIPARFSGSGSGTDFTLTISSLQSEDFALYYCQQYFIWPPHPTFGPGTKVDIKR
Total Internalized RFU / RFU: 4016378
